# SYSTEM_NAME: FGFR2 (Homo sapiens)
# Sequence (P21802 22-821): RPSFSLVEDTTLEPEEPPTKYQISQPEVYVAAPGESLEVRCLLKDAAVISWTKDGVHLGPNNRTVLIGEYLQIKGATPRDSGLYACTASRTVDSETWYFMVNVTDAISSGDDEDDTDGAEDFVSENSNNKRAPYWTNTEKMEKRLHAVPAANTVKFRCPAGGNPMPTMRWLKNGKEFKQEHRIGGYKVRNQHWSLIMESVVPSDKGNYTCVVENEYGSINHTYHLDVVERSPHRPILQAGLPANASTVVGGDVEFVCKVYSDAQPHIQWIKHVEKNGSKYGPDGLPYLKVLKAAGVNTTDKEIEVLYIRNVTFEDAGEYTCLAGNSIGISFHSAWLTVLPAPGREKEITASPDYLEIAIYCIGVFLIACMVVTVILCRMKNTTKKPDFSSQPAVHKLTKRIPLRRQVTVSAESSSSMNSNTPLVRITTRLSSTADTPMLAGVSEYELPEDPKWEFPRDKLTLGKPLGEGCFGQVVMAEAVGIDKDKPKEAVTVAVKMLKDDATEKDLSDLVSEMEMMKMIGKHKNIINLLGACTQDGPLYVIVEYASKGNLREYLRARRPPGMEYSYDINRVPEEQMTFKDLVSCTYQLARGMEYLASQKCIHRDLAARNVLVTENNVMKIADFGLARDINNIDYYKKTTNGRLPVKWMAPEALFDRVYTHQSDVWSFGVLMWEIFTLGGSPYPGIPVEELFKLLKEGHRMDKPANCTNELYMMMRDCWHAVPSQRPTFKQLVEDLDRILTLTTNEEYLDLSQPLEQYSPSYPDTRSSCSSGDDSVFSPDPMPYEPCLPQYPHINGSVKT
# METHOD_SUMMARY: FGFR2 Kinase Protocol - Condition 2 (Reaction Biology HotSpot radiometric kinase assay, no preincubation)
# Format: biochemical
# CONDITION_SUMMARY: poly[Glu:Tyr] (4:1) 0.2 mg/ml, ATP 100 microM, 2 hr room temperature
pIC50: −log10 of the molar value.
Measured pIC50 values are reported for all entries that follow.

Consider the reported pIC50 for these compounds:
>>> result("C=CC(=O)N1C[C@@H](n2nc(C#Cc3cc4ncn(C)c4cc3Cl)c3c(N)ncnc32)C[C@@H]1COC")
"≥ 7.00"
>>> result("C=CC(=O)N1C[C@@H](n2nc(C#Cc3cc4ncn(C5CC5)c4cc3Cl)c3c(N)nccc32)C[C@@H]1COC")
"≥ 7.00"
>>> result("C=CC(=O)N1C[C@@H](c2nc(C#Cc3cc4ncn(C5CC5)c4cc3F)c3c(N)ncnn23)C[C@@H]1COC")
"≥ 7.00"

Let's switch to this compound now.
Looking up C=CC(=O)N1C[C@@H](n2nc(C#Cc3ccc4c(cnn4CC)c3)c3c(N)nccc32)C[C@@H]1COC , I see its pIC50 listed as ≥ 7.00
